Recorded IC50 values for a group of compounds are listed next.
System: M12
ASSAY NAME: Cell viability assay
Format: cell-based
EXPERIMENTAL PARAMETERS: M12 cells, 24 hrs, read-out: Inhibition of cancer cell proliferation IC50
The figure you give is taken to be in µM; do not add the unit.

Prompt line: Which IC50 reading was recorded for the compound NCCN1C(=O)S/C(=C\CCC2CCCCC2)C1=O ?
Response line: 4.51

Prompt line: Request: NCCN1C(=O)S/C(=C\CCc2ccccc2)C1=O
Response line: 14.8

---

Recorded pIC50 values for a group of compounds are listed next.
Tested on: DU145
ASSAY NAME: Cell viability assay
Type: cell-based
EXPERIMENTAL PARAMETERS: Homo sapiens, DU-145, DU145 cells, 24 hrs, read-out: Inhibition of cancer cell proliferation IC50
# pIC50 = -log10(concentration in molar units)

COMPOUND: NCCN1C(=O)S/C(=C\CCC2CCCCC2)C1=O [Example 4]
pIC50: 5.32

Prompt line: Which pIC50 reading was recorded for the compound NCCN1C(=O)S/C(=C\CCc2ccccc2)C1=O [Example 8] ?
Response line: 4.51
